Reference for the values: patent US5190741A

Provide the recorded tissue uptake at 2 h for the entries that follow.
- PROCEDURE_TEXT: Tissue distribution in C57 BL6 mice bearing B16
- Assay type: in vivo, mouse
- CONDITION_CONTEXT: mouse, eye, iv, 3 umol/animal, 2 h; read-out: eye % ID/g
Form entry: value (%ID/g) — number only.

input: Which value of tissue uptake at 2 h has been reported for CCN(CC)CCNC(=O)c1ccc(I)cc1 [Derivative A, N-(2-diethylaminoethyl) 4-iodo benzamide] in the records?
output: 13

input: Which value of tissue uptake at 2 h has been reported for CCNCCNC(=O)c1ccc(I)cc1 [Derivative B, N-(2-ethylaminoethyl) 4-iodo benzamide] in the records?
output: 0.43

----------
- PROCEDURE_TEXT: Tissue distribution in Swiss nu/nu SSCUP mice bearing Beu
- Type: in vivo, human
- CONDITION_CONTEXT: mouse, muscle, iv, 3 umol/animal, 2 h; read-out: muscle % ID/g
READOUT_TYPE: tissue uptake at 2 h (%ID/g)
Form entry: value (%ID/g) — number only.

input: Which value of tissue uptake at 2 h has been reported for CCN(CC)CCNC(=O)c1ccc(I)cc1 [Derivative A, N-(2-diethylaminoethyl) 4-iodo benzamide] in the records?
output: 0.93

----------
- PROCEDURE_TEXT: Tissue distribution in Swiss nu/nu SSCUP mice bearing Beu
- Format: in vivo, human
- CONDITION_CONTEXT: mouse, tumor, iv, 3 umol/animal, up to 8 hours, Beu; read-out: intratumoral concentration
- Protocol: The study of the tissue distribution of the ^125 I labelled compounds was performed in mice bearing grafted melanomas (cf. autoradiograms above). […] The animals are sacrificed at different time intervals of 1 to 24 hours after the injection. The blood is collected and the principal organs are excised. Aliquots are weighed and the radioactivity of the samples is measured in a […] 1191 counter (analytic tracer). The counting yield for iodine 125 is 60%. […]
READOUT_TYPE: tissue uptake at 8 h

input: Which value of tissue uptake at 8 h has been reported for CCN(CC)CCNC(=O)c1ccc(I)cc1 [Derivative A, N-(2-diethylaminoethyl) 4-iodo benzamide] in the records?
output: > 1 %ID/g

----------
- PROCEDURE_TEXT: Tissue distribution in C57 BL6 mice bearing B16
- Format: in vivo, mouse
- CONDITION_CONTEXT: mouse, liver, iv, 3 umol/animal, 1 h; read-out: liver % ID/g
READOUT_TYPE: tissue uptake at 1 h

input: Which value of tissue uptake at 1 h has been reported for CCN(CC)CCNC(=O)c1ccc(I)cc1 [Derivative A, N-(2-diethylaminoethyl) 4-iodo benzamide] in the records?
output: 6.04 %ID/g

input: Which value of tissue uptake at 1 h has been reported for CCNCCNC(=O)c1ccc(I)cc1 [Derivative B, N-(2-ethylaminoethyl) 4-iodo benzamide] in the records?
output: 6.96 %ID/g

----------
- PROCEDURE_TEXT: Tissue distribution in C57 BL6 mice bearing B16
- Type: in vivo, mouse
- CONDITION_CONTEXT: mouse, muscle, iv, 3 umol/animal, 6 h; read-out: muscle % ID/g
Provide the recorded tissue uptake at 6 h for the entries that follow.
Form entry: value (%ID/g) — number only.

input: Which value of tissue uptake at 6 h has been reported for CCNCCNC(=O)c1ccc(I)cc1 [Derivative B, N-(2-ethylaminoethyl) 4-iodo benzamide] in the records?
output: 0.2

input: Which value of tissue uptake at 6 h has been reported for CCN(CC)CCNC(=O)c1ccc(I)cc1 [Derivative A, N-(2-diethylaminoethyl) 4-iodo benzamide] in the records?
output: 0.19
